Method notes: protein stability index of a GFP-peptide fusion (yeast GPS) (PSI 1-4); higher = more stable; sorted into four equal gates, so the index is relative within each strain
Study conditions: ubr1∆
Assay readout: protein stability index

Look over these answered cases.
Residue codes | protein stability index
LFPIVKKHGKTDYFLPK [YJL039C/NUP192] | 2.08
QTGIFVYQNNITPSAMK [RPB5] | 3.36
ESYYNWKYNNFLQKFEI [YML103C/NUP188] | 2.72
VMKQVETLVLDEADKMI [PRP28] | 3.04
LSAENIEERLVAIAEQD [SCL1] | 3.32

Looking up TTLNEMFRYKTNLYKLK [PUP3] , I found its protein stability index recorded as 2.08

// field: protein stability index; key: MLSILEIFKKGYIKNNK [POP6] ; value = 3.08

Just so you know, measured protein stability index for KWDITTRNSNNLAIVEL [BRR2] came out at 3.54

So for NQSFIQQKANLLSSSNF [COR1] , the logged protein stability index turned out to be 1.76

Entry SADCELLGIDATVPSGR [RPO31] ; protein stability index = 3.32

Entry under test: DMIKCFLPKLNSVRNSL [NUT1] . Its protein stability index was 2.18

sequence KIKDNKEKIKNNRQLPY [RPT5] , protein stability index observed: 2.86

Lab note: measured protein stability index of LRLFNAPDSEYLCFILS [SNF2] was 1.94

Data point: INSAPDFTQEDELRKQE [ISW2] ; protein stability index = 3.46

Summary for this sequence, ICMESLFLEPSWSSSAA [PCI8] : protein stability index is 3.17
